Method summary: In-vivo PET imaging, lung uptake in wild type and bleomycin treated rats
Set-up: species or system rat
Condition notes: Sprague Dawley, rat, lung, intravenous, individual wild type rats (Group 1), baseline PET scan; read-out: Lung uptake (% ID/g) @ 60-90 min
Reported endpoint: tissue uptake (%ID/g)
Return type: number; implicit unit %ID/g.

## Input Given Cc1nc(-c2nnn(C)c2COC(=O)N(C)CCCC[18F])ccc1O[C@H]1CCC[C@H](C(=O)O)C1 [Example 16] , state its recorded tissue uptake.
## Output 0.085

====

Method summary: In-vivo PET imaging in bleomycin treated rat model, LPA1 target engagement (% displacement)
Condition notes: Sprague Dawley, rat, lung, intravenous, 100 mg/kg, bleomycin treated rats, Group 5 (100 mg/kg group, n=6), baseline
Reported endpoint: tissue uptake
Hi, when you answer, please include the unit after the number. Thanks!

## Input Given Cc1nc(-c2nnn(C)c2COC(=O)N(C)CCCC[18F])ccc1O[C@H]1CCC[C@H](C(=O)O)C1 , state its recorded tissue uptake.
## Output 0.1 %ID/g
